biological target: HLA-A*30:02 (Homo sapiens, UniProt P04439, D101N/D140H/D185E/E176R/F33S/G80R/H175R/K168Q/Q94H/R138E/R41S/V100E); format: binding
PARAMETER: Aff A*30:02 (ED50) (M)
Could you give me the number in M? Just the number is fine.

Completed entries (count: 5):
SQIMYNYPT [Rv0288_2–10m1] | 4e-06
MKGDLQSSL | 2e-05
KFQDAYNAA | 8e-06
SNLKFQDAY | 2e-07
LVRAYHSMS [Rv0288_65–73m1] | 1e-08

// query Aff A*30:02 (ED50) value for entry NTPAFEWYY
2e-08

What do you get for AVFNFPPNG ?
3e-06

What do you get for GQSSFYSDW ?
2e-08

What do you get for RAQDDYNGW ?
5e-07

What do you get for HSMSSTHEA [Rv0288_70–78m1] ?
6e-09

What do you get for MGRDIKVQF ?
7e-08

What do you get for SMAGSSAMI ?
9e-08

What do you get for AMGDAGGYK ?
7e-07

What do you get for YAGSLSALL ?
2e-07

Recorded values, source paper PMC3608651.
